Assay: in vivo
Settings: Balb/C, mouse, plasma, po, 50 mg/kg
Where a name gives a salt, the structure may show the parent alone.

{"columns": ["Compound", "Tmax"],
 "data": [
  ["Cc1ccc(NC(=O)c2ccc(CN3CCN(C)CC3)cc2)cc1Nc1nccc(-c2cccnc2)n1 [Imatinib, Imatinib mesylate]", "10.2 min"]
]}

====

Assay: in vivo
Conditions: Balb/C, mouse, brain, po, 50 mg/kg
Where a name gives a salt, the structure may show the parent alone.
Quantity measured: Tmax (h)

{"columns": ["Molecule", "Quantity measured", "Endpoint result"],
 "data": [
  ["Cc1ccc(NC(=O)c2ccc(CN3CCN(C)CC3)cc2)cc1Nc1nccc(-c2cccnc2)n1 [Imatinib, Imatinib mesylate]", "Tmax", 2]
]}

====

Assay: in vivo
Settings: Balb/C, mouse, plasma, po, 50 mg/kg, Plasma AUC0–24, imatinib 50 mg/kg oral, vehicle 30 min before
Where a name gives a salt, the structure may show the parent alone.

{"columns": ["Compound", "AUC(0-t), ng·h/mL"],
 "data": [
  ["Cc1ccc(NC(=O)c2ccc(CN3CCN(C)CC3)cc2)cc1Nc1nccc(-c2cccnc2)n1 [Imatinib, Imatinib mesylate]", 12200]
]}
